Ref: ChEMBL document CHEMBL3621046

Assay protocol: Terminal half life in ICR mouse at 10 mg/kg, iv after 5 mins to 6 hrs
Type: ADME, organism-based
Condition description: in vivo, read-out: beta t1/2
Quantity name: half-life (min)
Numeric answer only, unit min assumed.

QUERY: What half-life value was documented for this compound, Cc1ccc(Oc2cn(C)c(COc3ccccc3)cc2=O)c(C)c1 ?
RESULT: 47.9

---

Assay target: Enoyl-[acyl-carrier-protein] reductase [NADPH] FabI (Staphylococcus aureus, UniProt Q6GI75)
Sequence (Q6GI75 whole entry): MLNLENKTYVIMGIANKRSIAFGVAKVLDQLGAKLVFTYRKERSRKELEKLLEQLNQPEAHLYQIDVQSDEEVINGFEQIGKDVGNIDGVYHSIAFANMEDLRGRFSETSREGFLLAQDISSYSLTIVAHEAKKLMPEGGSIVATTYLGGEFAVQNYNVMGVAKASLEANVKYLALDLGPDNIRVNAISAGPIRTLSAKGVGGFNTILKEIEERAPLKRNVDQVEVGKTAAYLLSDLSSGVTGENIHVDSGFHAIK
Quantity name: IC50 (µM)
Numeric answer only, unit µM assumed.

QUERY: What IC50 value was documented for this compound, Cn1cc(Oc2c(Cl)cccc2Cl)c(=O)cc1COc1ccccc1 ?
RESULT: 0.72

QUERY: What IC50 value was documented for this compound, Cc1cc(Cl)ccc1Oc1coc(/C=C/c2ccco2)cc1=O ?
RESULT: 3.89

More entries:
QUERY: What IC50 value was documented for this compound, O=c1cc(/C=C/c2ccccc2)occ1Oc1cccc(Cl)c1Cl ?
RESULT: 6.73

QUERY: What IC50 value was documented for this compound, Cc1c(Oc2coc(COc3ccccc3)cc2=O)cccc1[N+](=O)[O-] ?
RESULT: 3.52

QUERY: What IC50 value was documented for this compound, CCCCn1cc(Oc2ccc(Cl)cc2C)c(=O)cc1COc1ccccc1 ?
RESULT: 0.63
